Reported GI50 values follow for various compounds
System: RXF 631
Experiment: NCI tumour cell line growth inhibition, 48 h
Active and inactive are the calls of the source. No stated cut-off is given here; in the data, active = GI50 up to about 1.1 µM and inactive = higher.

Solved entries (count: 4):
> print(dat)
                                   compound         result.value
1           CN(Cc1ccccc1)c1nc(=[N+](C)C)ss1   67.5 µM (inactive)
2  CC(=O)NNc1nc(C)c(C(=O)/C=C/c2ccc(N(C)C)cc2)s1  > 100 µM (inactive)
3  COc1cc(C(=O)CC2OC(=O)C(Cl)=C2Cl)ccc1Cl (centres undefined)  > 100 µM (inactive)
4  NC(=S)N/N=C1/C(=O)N(c2ccccc2)C(=O)C1C(=O)Nc1ccccc1 (centres undefined)  > 100 µM (inactive)

Q: What does the data say about its GI50? Entry: CN1CC(=O)N2Cc3ccccc3-n3cccc3C2C1 (centres undefined)
Result: > 100 µM (inactive)

Q: Consider the compound shown here: CCOC(=O)C(C[Si](C)(C)C)P(=O)(OCC)OCC (centres undefined) What is its recorded GI50?
Result: > 100 µM (inactive)

Q: Item `CC1=C(/C(C)=N/NC(=O)c2ccccc2O)C(C)C(/C(C)=N/NC(=O)c2ccccc2O)=C(C)N1` has what recorded GI50?
Result: 37.1 µM (inactive)

###

Test system: HOP-62
Experiment: NCI tumour cell line growth inhibition, 48 h
The source made the active and inactive calls. Rule as the data show it: active = GI50 up to about 1.1 µM and inactive = higher.
Pick one and only one: true for active, false for inactive

> print(dat)
                                   molecule  study.target  assigned.class
1  NC(CP(=O)(O)O)C(=O)O (centres undefined)        HOP-62           false
2  CC1(C)CC(C2CC(C)(C)CC(C)(C)[C@H]2O)[C@@H](O)C(C)(C)C1 (some centres undefined)        HOP-62           false
3             S=C(NCc1ccccc1)N/N=C/c1ccccn1        HOP-62           false
4  Nc1ccc2c(c1)N(C(=O)c1cc3cc(NC(=O)c4cc5ccccc5o4)ccc3[nH]1)CC2CCl (centres undefined)        HOP-62            true
5  O=c1[nH]c(N/N=C\C(O)C(O)C(O)C(O)CO)nc2ccccc12 (centres undefined)        HOP-62           false
6  Oc1nc(S)nc2c1C(c1ccc(Cl)cc1)c1c(O)nc(S)nc1O2        HOP-62           false

Q: Per the records of this test, what outcome belongs to C=CC(Br)(CBr)CCC(Br)C(C)C (centres undefined) ?
Result: false

Q: What call does the record list for CN1CCN(Cc2ccccc2)CC1CC#N (centres undefined) ?
Result: false

Q: Which result was noted for this molecule in the test: CC(NNC(=O)c1ccncc1)c1cccc(C(F)(F)F)c1 (centres undefined)
Result: false

###

Tested on: Hs-578T
Test: NCI tumour cell line growth inhibition, 48 h
The source made the active and inactive calls. Rule as the data show it: active = GI50 up to about 1.1 µM and inactive = higher.
Just give me one of these, please: true (1) = active, false (0) = inactive

Completed entries (count: 5):
Compound	Assigned Class
CCOC(=O)n1cncc1CC(NC(=O)Cc1c(C(=O)C=C(C)C)[nH]c2ccccc12)C(=O)OC (centres undefined)	false (0)
COC(=O)C1CCC(=O)N1CN(C(C)=O)c1cccc(O)c1 (centres undefined)	false (0)
C=C(C)[C@H]1C2=CC(C)=C(O2)[C@@H](O[C@@H]2c3oc(cc3C)[C@H](C(=C)C)[C@H]3C=C(CC[C@H]2C(=C)C)C(=O)O3)[C@H](C(=C)C)CCC2=C[C@H]1OC2=O	false (0)
Cc1oc2nc1C(=O)NCc1nc(cs1)C(=O)N[C@H](C(C)C)c1nc(cs1)C(=O)N[C@H]2C	false (0)
CC(=O)Nc1cc(CN2CCCCC2)c(O)c2ncccc12	false (0)

Now consider the entry below.
Q: What was the test verdict on `Cn1c2ccccc2n2c3ncccc3c(=S)c(C#N)c12` ?
Result: false (0)

###

Test system: SNB-19
Test: NCI tumour cell line growth inhibition, 48 h
Active and inactive are the calls of the source. Rule as the data show it: active = GI50 up to about 1.1 µM and inactive = higher.
Each item that follows carries a reported GI50.

In the examples that follow, each entry is paired with its recorded GI50.
> print(dat)
                                   compound  readout.name         result.value
1  CN1C[C@@H]2CCCN2P1Oc1cccc2cccnc12 (stereo partly specified)          GI50  > 100 µM (inactive)
2  COc1ccc(C(=O)/C=C/c2ccc(OCCSCCCCCCCCCCSCCOc3ccc(/C=C/C(=O)c4ccc(OC)cc4)cc3)cc2)cc1          GI50  > 100 µM (inactive)
3  COc1ccc2c(c1)c[n+](C)c1c3cc(OC)c(OC)cc3ccc21          GI50   4.78 µM (inactive)
4  Cc1cc(OC(=O)c2c(C)cc(OC(=O)c3c(C)cc(O)cc3O)cc2O)cc(O)c1C(=O)O [GYROPHORIC ACID]          GI50  > 100 µM (inactive)
5  O=C1NC(=O)C(c2c[nH]c3cc(Br)ccc23)=C1c1cnc[nH]1          GI50  > 100 µM (inactive)

Q: Give SNB-19 GI50 for `CC(=O)c1c2n(n(-c3ccccc3)c1=O)C(=O)c1nccnc1-2`
Result: > 100 µM (inactive)

Q: What is its GI50 for SNB-19? Entry: COc1ccc(C2CC(c3c(C)nn(-c4ccccc4)c3-c3ccc(C)cc3O)=NN2c2ccccc2)cc1 (stereo unspecified)
Result: > 29 µM (inactive)

Q: Value wanted: GI50 (SNB-19) of entry `c1ccc2sc(C3(N4CCC5(CC4)OCCO5)CCCCC3)cc2c1`
Result: > 100 µM (inactive)

Q: Please provide the recorded GI50 for C1CCN(CCC2CCCCN2)CC1 (stereo unspecified) , tested on SNB-19.
Result: > 100 µM (inactive)

Q: Look up GI50 with SNB-19 for this compound: COc1cc(C2c3cc4c(cc3OC(NNS(=O)(=O)c3ccc(C)cc3)C2C)OCO4)cc(OC)c1OC (stereo unspecified)
Result: 3.58 µM (inactive)

Q: Enter reported GI50 observed with SNB-19 for `CC(C)OP(=O)(OC(C)C)/C(F)=N/Nc1ccc([N+](=O)[O-])cc1`
Result: > 100 µM (inactive)

Q: Lab note: need GI50 with SNB-19 for entry C[N+](C)(C)CC1CCC(C[N+](C)(C)C)C1=NO (stereo unspecified) , please look it up.
Result: > 100 µM (inactive)

Q: # returns recorded GI50 (system: SNB-19) for N#CC1(C#N)C(c2ccccc2)NC23CCCCC2C1(C#N)C(=O)N3 (stereo unspecified)
Result: > 100 µM (inactive)

Q: Under SNB-19: GI50 value of CCOC(=O)N1CCC2(CC1)C[C@](C)(C(C)=O)C(C)O2 (stereo partly specified) ?
Result: > 100 µM (inactive)

Q: Recorded GI50 for `C1CCCCc2nc3c(nc2CCC1)c1nc2c(nc1c1nc4c(nc31)CCCCCCCC4)CCCCCCCC2` with SNB-19, please?
Result: > 100 µM (inactive)

Q: Observed GI50 on SNB-19 for `CCCCCCCCCCNCCSSCc1ccc(Cl)cc1` , please.
Result: 1.71 µM (inactive)

Q: # query: GI50 | item `COc1cc2cc3c4c(cc(OC)c(OC)c4c2cc1OC)CCN3C(=O)CCC(=O)NCCCN(C)C` | system: SNB-19
Result: > 100 µM (inactive)

Q: Request: GI50, test system SNB-19, entry `Cc1oc2c(cc(O)c3ccccc32)c2cccc1-2`
Result: > 100 µM (inactive)

Q: # get_value(readout= GI50, system= SNB-19) for `C[Si](C)(N[Si](C)(C)OCCc1ccccc1)OCCc1ccccc1`
Result: > 100 µM (inactive)

Q: Find GI50 (SNB-19) for the entry `O=C(OCCC12CC3CC(CC(C3)C1)C2)c1ccc(NCc2cc(O)ccc2O)cc1`
Result: 1.26 µM (inactive)

Q: Lab note: need GI50 with SNB-19 for entry `O=C(/C=C/c1ccccc1)Oc1ccc(C(=O)/C=C/c2ccccc2)cc1` , please look it up.
Result: 15.1 µM (inactive)

Q: What measured GI50 is associated with `Clc1ccc(/C=C/c2nc(-c3ccccc3)cn3c2nc2ccccc23)cc1Cl` on SNB-19?
Result: 59.6 µM (inactive)

Q: Recall the recorded GI50 for `O=C1CCCCC/C1=C\c1cccc([N+](=O)[O-])c1` with SNB-19 and state it.
Result: 38.6 µM (inactive)

Q: Query the reported GI50 for SNB-19; item: CC(=O)N1c2ccccc2C2=CC3C4C(=O)N(c5ccccc5)C(=O)C4C21C1C(=O)N(c2ccccc2)C(=O)C31 (stereo unspecified)
Result: 16.4 µM (inactive)

Q: # returns recorded GI50 (system: SNB-19) for CC(=O)OC1CC[C@]2(C)C3CC[C@@]4(C)C(CCC4[C@H](C)CCCC(C)C)[C@@H]3CCC2(Br)C1 (stereo partly specified)
Result: 27.4 µM (inactive)

From: ChEMBL document CHEMBL1201862
